The measurements presented in this section are drawn from PubChem BioAssay (NCATS).

# PROTOCOL: Primary qHTS for inhibitors of SARS-S pseudo-typed particle cell entry (AID 1479145); also: nearly all actives have a fitted effect of over 45% in size
# RUN_CONDITIONS: SARS-S pseudotyped particle cell entry, luciferase reporter; series mostly up to 57.1 µM
Inconclusive results are not listed. Activity calls are given as the source filed them. Calls follow the shape of the full dose curve. Numbered stars: 1 amine (or outer) side, 2 acyl side, 3 side chain; on linkers, the order of the positions; unused ones are H or OH. Square brackets hold non-standard residues; d marks the D form. Side chains are listed from the residue outwards. Peptide text beside a SMILES is read from it. * marks the point of attachment. Ethylenediamine = C(CN[*:2])N[*:1]; Hyp = O=C(O)[C@@H]1C[C@@H](O)CN1; Phg = N[C@H](C(=O)O)c1ccccc1; CO = O=C([*:1])[*:2]; Bn = c1ccc(C*)cc1
Labels: active, inactive

- MOLECULE: "CCO/N=C(\\C(=O)N[C@@H]1C(=O)N2C(C(=O)O)=C(Sc3nc(-c4cc[n+](C)cc4)cs3)CS[C@H]12)c1nsc(NP(=O)(O)O)n1"
  LABEL_CLASS: "inactive"
- MOLECULE: "CNC(=O)c1c(I)c(C(=O)NCC(=O)Nc2c(I)c(C(=O)O)c(I)c(C(=O)NCCO)c2I)c(I)c(N(C)C(C)=O)c1I"
  LABEL_CLASS: "inactive"
- MOLECULE: "C=C1CC[C@H](O)CC1=C/C=C1\\CCC[C@]2(C)[C@@H]([C@H](C)/C=C/[C@H](C)C(C)C)CC[C@@H]12"
  LABEL_CLASS: "inactive"
- MOLECULE: "C[N+](C)(C)C1CCC(CC2CCC([N+](C)(C)C)CC2)CC1 (centres undefined)"
  LABEL_CLASS: "inactive"
- MOLECULE: "CC(C)c1nc(CN(C)C(=O)N[C@@H](CCN2CCOCC2)C(=O)N[C@H](CC[C@H](Cc2ccccc2)NC(=O)OCc2cncs2)Cc2ccccc2)cs1"
  LABEL_CLASS: "inactive"
- MOLECULE: "CCC1(C)OC(=O)N(C)C1=O (centres undefined)"
  LABEL_CLASS: "inactive"
- MOLECULE: "CC[C@@H](C)C[C@@H](C)CCCCCCCCC(=O)NC1C[C@@H](O)[C@@H](NCCN)NC(=O)[C@@H]2[C@@H](O)CCN2C(=O)[C@H]([C@H](O)CCN)NC(=O)[C@H]([C@H](O)[C@@H](O)c2ccc(O)cc2)NC(=O)[C@@H]2C[C@@H](O)CN2C(=O)[C@H]([C@@H](C)O)NC1=O (some centres undefined)"
  LABEL_CLASS: "inactive"
- MOLECULE: "CC(=O)NC(C=O)C(O)C(O)[C@H](O)CO (some centres undefined)"
  LABEL_CLASS: "inactive"
- MOLECULE: "COC1(O[C@H]2CC[C@H]3[C@@H]4CC[C@H]5C[C@@H]6S[C@@H]6C[C@]5(C)[C@H]4CC[C@]23C)CCCC1"
  LABEL_CLASS: "inactive"
- MOLECULE: "CC[C@H]1OC(=O)C[C@@H](OC(C)=O)[C@H](C)[C@@H](O[C@@H]2O[C@H](C)[C@@H](O[C@H]3C[C@@](C)(O)[C@@H](OC(=O)CC(C)C)[C@H](C)O3)[C@H](N(C)C)[C@H]2O)[C@@H](CC=O)C[C@@H](C)C(=O)/C=C/C(C)=C/[C@@H]1CO[C@@H]1O[C@H](C)[C@@H](O)[C@@H](OC)[C@H]1OC"
  LABEL_CLASS: "inactive"
- MOLECULE: "C=CC1=C(C(=O)O)N2C(=O)[C@@H](NC(=O)/C(=N\\OCC(=O)O)c3csc(N)n3)[C@H]2SC1"
  LABEL_CLASS: "inactive"
- MOLECULE: "CC(=O)O[C@H]1CC[C@@]2(C)C(=CC[C@H]3[C@@H]4CC[C@H](C(C)=O)[C@@]4(C)CC[C@@H]32)C1"
  LABEL_CLASS: "inactive"
- MOLECULE: "CC(CCc1ccc(O)cc1)NCC(O)c1ccc(O)cc1 (centres undefined)"
  LABEL_CLASS: "inactive"
- MOLECULE: "CCC(Oc1ccccc1)C(=O)N[C@@H]1C(=O)N2[C@@H]1SC(C)(C)[C@@H]2C(=O)O (some centres undefined)"
  LABEL_CLASS: "inactive"
- MOLECULE: "CC(C)OC(=O)CCC/C=C\\C[C@@H]1[C@@H](/C=C/[C@@H](O)COc2cccc(C(F)(F)F)c2)[C@H](O)C[C@@H]1O"
  LABEL_CLASS: "inactive"
- MOLECULE: "CCCCC[C@H](O)/C=C/[C@@H]1[C@@H](C/C=C/CCCC(=O)O)[C@@H](O)C[C@H]1O"
  LABEL_CLASS: "inactive"
- MOLECULE: "Cc1ncc([N+](=O)[O-])n1CCOC(=O)c1ccccc1"
  LABEL_CLASS: "inactive"
- MOLECULE: "CO/N=C(\\C(=O)N[C@@H]1C(=O)N2C(C(=O)O)=C(CSc3cnns3)CS[C@H]12)c1csc(N)n1"
  LABEL_CLASS: "inactive"
- MOLECULE: "CC(=O)O[C@]1(C(C)=O)CC[C@H]2[C@@H]3C[C@H](C)C4=CC(=O)C=C[C@]4(C)[C@@]3(F)[C@@H](O)C[C@@]21C"
  LABEL_CLASS: "inactive"
- MOLECULE: "C/C(=C\\C(=O)OCCCCCCCCC(=O)O)C[C@@H]1OC[C@H](C[C@@H]2O[C@H]2[C@@H](C)[C@H](C)O)[C@@H](O)[C@H]1O"
  LABEL_CLASS: "inactive"
- MOLECULE: "CC(=O)OC1CC2CCC1(C)C2(C)C (centres undefined)"
  LABEL_CLASS: "inactive"
- MOLECULE: "CN(C)C/C=C/C(=O)Nc1cc2c(Nc3ccc(F)c(Cl)c3)ncnc2cc1OC1CCOC1 (centres undefined)"
  LABEL_CLASS: "active"
- MOLECULE: "C#C[C@]1(O)CC[C@@H]2[C@@H]3CCC4=CCCC[C@@H]4[C@H]3C(=C)C[C@@]21CC"
  LABEL_CLASS: "inactive"
- MOLECULE: "Cc1cc(N2CCN([C@@H]3CN[C@H](C(=O)N4CCSC4)C3)CC2)n(-c2ccccc2)n1"
  LABEL_CLASS: "inactive"
- MOLECULE: "CC(=O)OCC(=O)[C@@]1(O)[C@H](C)C[C@H]2[C@@H]3C[C@H](F)C4=CC(=O)C=C[C@]4(C)[C@H]3[C@@H](O)C[C@@]21C"
  LABEL_CLASS: "inactive"
- MOLECULE: "O=C(OC1C(OC(=O)c2cccnc2)C(OC(=O)c2cccnc2)C(OC(=O)c2cccnc2)C(OC(=O)c2cccnc2)C1OC(=O)c1cccnc1)c1cccnc1 (centres undefined)"
  LABEL_CLASS: "inactive"
- MOLECULE: "NS(=O)(=O)c1ccc(-n2nc(C(F)(F)F)cc2-c2ccc(F)cc2)cc1"
  LABEL_CLASS: "inactive"
- MOLECULE: "CC(C(=O)O)c1ccc(C2CCCCC2)c2ccccc12 (centres undefined)"
  LABEL_CLASS: "inactive"
- MOLECULE: "NCCCC[C@@H]1NC(=O)[C@@H](Cc2c[nH]c3ccccc23)NC(=O)[C@H](c2ccccc2)NC(=O)[C@@H]2C[C@@H](OC(=O)NCCN)CN2C(=O)[C@H](Cc2ccccc2)NC(=O)[C@H](Cc2ccc(OCc3ccccc3)cc2)NC1=O (cyclo([Hyp]([CO-Ethylenediamine])[Phg][dW]KY(Bn)F))"
  LABEL_CLASS: "inactive"

----------
# PROTOCOL: qHTS for differential inhibitors of proliferation of Plasmodium falciparum line 3D7 (AID 1876)
# RUN_CONDITIONS: P. falciparum 3D7 proliferation inhibition; series mostly up to 28.7 µM
Records with an inconclusive call do not appear. The source made the active and inactive calls. The call rests on the fitted dose curve; in most records, active means well fitted curve in the direction sought with a large enough effect; inconclusive means small, poorly fitted or top-dose-only effect, or another doubt; inactive means no such curve, though single readings can be large or run the other way.
Labels: TRUE (active), FALSE (inactive)

- MOLECULE: "C/C=C(/C)C(=O)O[C@H]1C(C)=C2C([C@@H]1OC(=O)CCCCCCC)[C@@](C)(OC(C)=O)C[C@@H](OC(=O)CCC)[C@@]1(O)[C@H]2OC(=O)[C@@]1(C)O (stereo not given in full)"
  LABEL_CLASS: "TRUE"
- MOLECULE: "COC(=O)C(N)CCCN=C(N)N[N+](=O)[O-] (stereo not given)"
  LABEL_CLASS: "FALSE"
- MOLECULE: "NC(Cn1ccc(=O)[nH]c1=O)C(=O)O (stereo not given)"
  LABEL_CLASS: "FALSE"
- MOLECULE: "COc1ccc2c3c1O[C@H]1C(=O)CC[C@@]4(O)C(C2)N(CC2CC2)CCC314 (stereo not given in full)"
  LABEL_CLASS: "FALSE"
- MOLECULE: "CCCN1CCc2cc(O)cc3c2C1Cc1ccc(O)c(O)c1-3 (stereo not given)"
  LABEL_CLASS: "TRUE"
